Reported IC50 values for the following compounds.
# SYSTEM_TESTED: K562-αvβ5 (Vitronectin) (Homo sapiens, UniProt P06756+P18084)
# Construct: expressed in transfected cells; host or cells: K562
# Sequence (P06756 31-889 limits assumed): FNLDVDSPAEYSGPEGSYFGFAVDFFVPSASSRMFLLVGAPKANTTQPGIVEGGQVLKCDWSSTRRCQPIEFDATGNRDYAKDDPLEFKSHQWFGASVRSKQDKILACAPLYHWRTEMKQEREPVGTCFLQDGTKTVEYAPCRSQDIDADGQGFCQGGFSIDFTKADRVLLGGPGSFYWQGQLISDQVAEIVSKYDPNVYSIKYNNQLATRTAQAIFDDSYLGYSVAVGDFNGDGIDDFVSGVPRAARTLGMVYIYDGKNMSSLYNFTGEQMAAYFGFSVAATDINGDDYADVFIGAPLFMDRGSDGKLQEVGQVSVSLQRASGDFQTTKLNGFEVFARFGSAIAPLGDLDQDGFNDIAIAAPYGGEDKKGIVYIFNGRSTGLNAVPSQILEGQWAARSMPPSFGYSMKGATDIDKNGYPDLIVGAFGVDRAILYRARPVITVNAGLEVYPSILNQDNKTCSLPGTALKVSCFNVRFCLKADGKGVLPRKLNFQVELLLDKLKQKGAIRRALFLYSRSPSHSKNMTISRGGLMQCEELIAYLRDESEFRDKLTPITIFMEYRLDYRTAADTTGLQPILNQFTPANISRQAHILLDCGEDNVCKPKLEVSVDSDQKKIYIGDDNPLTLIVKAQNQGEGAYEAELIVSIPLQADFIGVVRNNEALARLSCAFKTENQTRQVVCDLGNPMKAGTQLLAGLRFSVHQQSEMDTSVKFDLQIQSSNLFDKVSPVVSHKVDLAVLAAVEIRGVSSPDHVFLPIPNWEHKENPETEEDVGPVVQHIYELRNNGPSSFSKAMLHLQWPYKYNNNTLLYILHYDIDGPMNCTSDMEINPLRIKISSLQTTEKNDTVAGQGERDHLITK
# Sequence (P06756 891-1048 limits assumed): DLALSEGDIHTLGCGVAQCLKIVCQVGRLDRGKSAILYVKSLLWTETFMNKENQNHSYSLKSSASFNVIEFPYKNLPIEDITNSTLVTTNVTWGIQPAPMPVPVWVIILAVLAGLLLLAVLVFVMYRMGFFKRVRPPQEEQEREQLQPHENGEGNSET
# Sequence (P18084 24-799): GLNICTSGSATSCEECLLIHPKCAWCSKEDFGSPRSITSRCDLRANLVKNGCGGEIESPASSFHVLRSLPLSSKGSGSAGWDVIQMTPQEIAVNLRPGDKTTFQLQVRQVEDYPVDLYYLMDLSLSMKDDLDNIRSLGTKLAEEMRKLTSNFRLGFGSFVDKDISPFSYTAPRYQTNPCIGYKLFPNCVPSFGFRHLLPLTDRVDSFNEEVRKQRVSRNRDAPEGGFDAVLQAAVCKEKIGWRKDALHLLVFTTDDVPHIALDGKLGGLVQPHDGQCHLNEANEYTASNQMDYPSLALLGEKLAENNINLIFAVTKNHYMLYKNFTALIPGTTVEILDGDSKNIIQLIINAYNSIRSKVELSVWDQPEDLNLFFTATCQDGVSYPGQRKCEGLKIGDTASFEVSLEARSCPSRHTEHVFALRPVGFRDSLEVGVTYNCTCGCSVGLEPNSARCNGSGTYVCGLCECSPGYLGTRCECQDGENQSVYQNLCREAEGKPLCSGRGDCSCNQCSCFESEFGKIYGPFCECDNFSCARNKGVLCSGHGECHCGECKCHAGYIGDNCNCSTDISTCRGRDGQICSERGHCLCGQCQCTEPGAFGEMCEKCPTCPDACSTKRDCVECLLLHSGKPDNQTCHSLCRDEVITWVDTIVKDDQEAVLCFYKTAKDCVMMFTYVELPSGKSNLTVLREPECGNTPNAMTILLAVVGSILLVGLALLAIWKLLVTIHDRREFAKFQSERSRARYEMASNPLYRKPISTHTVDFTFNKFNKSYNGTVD
# MEASUREMENT_PROTOCOL: Cell Adhesion Assay αvβ5
# Assay type: cell-based
# ASSAY_CONDITIONS: K562-αvβ5 cells, ligand Vitronectin, 2 mM MgCl2, BCECF-AM fluorescence; read-out: mean affinity (pIC50) αvβ5 (converted)
RESULT_TYPE: IC50 (nM)

1. Cc1cc(-c2cc([C@H](CC(=O)O)CN3CC[C@@H](CCc4ccc5c(n4)NCCC5)C3)cc(N3CCOCC3)c2)[nH]n1 [Example 7] :: 200
2. O=C(O)C[C@H](CN1CC[C@@H](CCc2ccc3c(n2)NCCC3)C1)c1cc(-c2ccn[nH]2)cc(N2CCOCC2)c1 [Example 6] :: 50.1
3. Cc1ccn(-c2cc(C(CC(=O)O)CN3CC[C@@H](CCc4ccc5c(n4)NCCC5)C3)cc(N3CCOCC3)c2)n1 (mixture of isomers) [Example 4] :: 158
4. O=C(O)C[C@H](CN1CC[C@@H](CCc2ccc3c(n2)NCCC3)C1)c1cc(-c2cn[nH]c2)cc(N2CCOCC2)c1 [Example 8] :: 63.1
5. O=C(O)C[C@H](CN1CC[C@@H](CCc2ccc3c(n2)NCCC3)C1)c1cc(N2CCOCC2)cc(-n2cccn2)c1 [Example 3] :: 200

---

# SYSTEM_TESTED: K562-αvβ6 (LAP-b1) (Homo sapiens, UniProt P06756+P18564)
# Construct: expressed in transfected cells; host or cells: K562
# Sequence (P06756 31-889 limits assumed): as the sequence (P06756 31-889 limits assumed) above
# Sequence (P06756 891-1048 limits assumed): as the sequence (P06756 891-1048 limits assumed) above
# Sequence (P18564 22-788): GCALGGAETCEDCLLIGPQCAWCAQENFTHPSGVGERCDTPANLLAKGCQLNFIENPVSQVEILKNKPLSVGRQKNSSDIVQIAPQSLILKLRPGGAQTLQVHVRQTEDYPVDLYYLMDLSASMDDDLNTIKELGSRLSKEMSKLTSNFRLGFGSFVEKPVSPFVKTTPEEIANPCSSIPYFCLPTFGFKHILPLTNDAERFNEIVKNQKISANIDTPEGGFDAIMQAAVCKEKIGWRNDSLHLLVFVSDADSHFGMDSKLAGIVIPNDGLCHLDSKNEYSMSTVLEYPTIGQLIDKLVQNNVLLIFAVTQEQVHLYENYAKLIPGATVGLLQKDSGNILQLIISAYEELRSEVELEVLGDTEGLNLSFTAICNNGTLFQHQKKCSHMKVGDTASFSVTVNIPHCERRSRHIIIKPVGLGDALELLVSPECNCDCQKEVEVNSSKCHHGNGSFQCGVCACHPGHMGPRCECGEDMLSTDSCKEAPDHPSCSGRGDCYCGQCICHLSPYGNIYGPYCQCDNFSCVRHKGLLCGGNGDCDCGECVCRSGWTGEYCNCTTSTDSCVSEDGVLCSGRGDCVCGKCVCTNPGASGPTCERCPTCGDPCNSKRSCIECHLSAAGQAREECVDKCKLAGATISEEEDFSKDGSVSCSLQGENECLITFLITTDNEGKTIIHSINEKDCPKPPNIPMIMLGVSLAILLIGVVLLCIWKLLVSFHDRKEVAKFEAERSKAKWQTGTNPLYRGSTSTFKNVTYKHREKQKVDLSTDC
# MEASUREMENT_PROTOCOL: Cell Adhesion Assay αvβ6
# Assay type: cell-based
# ASSAY_CONDITIONS: K562-αvβ6 cells, ligand LAP-b1, 2 mM MgCl2, BCECF-AM fluorescence; read-out: mean affinity (pIC50) αvβ6 (converted)
Reported IC50 values for the following compounds.
RESULT_TYPE: IC50 (nM)

1. O=C(O)C[C@H](CN1CC[C@@H](CCc2ccc3c(n2)NCCC3)C1)c1cc(-c2ccn[nH]2)cc(N2CCOCC2)c1 :: 3.16
2. Cc1cc(-c2cc([C@H](CC(=O)O)CN3CC[C@@H](CCc4ccc5c(n4)NCCC5)C3)cc(N3CCOCC3)c2)[nH]n1 :: 10
3. O=C(O)C[C@H](CN1CC[C@@H](CCc2ccc3c(n2)NCCC3)C1)c1cc(N2CCOCC2)cc(-n2cccn2)c1 :: 3.16
4. O=C(O)C[C@H](CN1CC[C@@H](CCc2ccc3c(n2)NCCC3)C1)c1cc(-c2cn[nH]c2)cc(N2CCOCC2)c1 :: 5.01

---

# SYSTEM_TESTED: K562-αvβ8 (LAP-b1) (Homo sapiens, UniProt P06756+P26012)
# Construct: expressed in transfected cells; host or cells: K562
# Sequence (P26012 43-769, one chain of several): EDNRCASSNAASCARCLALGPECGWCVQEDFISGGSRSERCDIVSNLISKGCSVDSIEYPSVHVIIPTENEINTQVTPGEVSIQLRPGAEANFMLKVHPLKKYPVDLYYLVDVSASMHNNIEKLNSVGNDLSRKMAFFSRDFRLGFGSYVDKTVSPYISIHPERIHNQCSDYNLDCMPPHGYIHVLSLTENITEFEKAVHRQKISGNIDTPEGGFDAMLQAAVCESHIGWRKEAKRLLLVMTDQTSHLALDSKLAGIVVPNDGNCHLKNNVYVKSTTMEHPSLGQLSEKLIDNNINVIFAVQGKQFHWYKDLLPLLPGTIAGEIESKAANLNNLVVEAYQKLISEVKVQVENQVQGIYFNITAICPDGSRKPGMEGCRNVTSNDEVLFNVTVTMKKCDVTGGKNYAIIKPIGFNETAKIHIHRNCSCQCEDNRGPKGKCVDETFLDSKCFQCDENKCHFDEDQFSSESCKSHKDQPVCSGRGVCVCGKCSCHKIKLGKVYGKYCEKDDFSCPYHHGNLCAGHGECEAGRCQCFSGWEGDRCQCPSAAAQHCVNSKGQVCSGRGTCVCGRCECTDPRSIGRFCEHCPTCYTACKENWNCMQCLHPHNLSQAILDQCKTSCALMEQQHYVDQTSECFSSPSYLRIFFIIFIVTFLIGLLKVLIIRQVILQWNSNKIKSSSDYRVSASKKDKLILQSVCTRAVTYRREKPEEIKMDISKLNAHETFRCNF
# MEASUREMENT_PROTOCOL: Cell Adhesion Assay αvβ8
# Assay type: cell-based
# ASSAY_CONDITIONS: K562-αvβ8 cells, ligand LAP-b1, 2 mM MgCl2, BCECF-AM fluorescence; read-out: mean affinity (pIC50) αvβ8 (converted)
Reported IC50 values for the following compounds.
RESULT_TYPE: IC50 (nM)

1) O=C(O)C[C@H](CN1CC[C@@H](CCc2ccc3c(n2)NCCC3)C1)c1cc(-c2cn[nH]c2)cc(N2CCOCC2)c1 [Example 8] :: 5.01
2) Cc1cc(-c2cc([C@H](CC(=O)O)CN3CC[C@@H](CCc4ccc5c(n4)NCCC5)C3)cc(N3CCOCC3)c2)[nH]n1 [Example 7] :: 25.1
3) O=C(O)C[C@H](CN1CC[C@@H](CCc2ccc3c(n2)NCCC3)C1)c1cc(N2CCOCC2)cc(-n2cccn2)c1 [Example 3] :: 15.8
4) Cc1ccn(-c2cc(C(CC(=O)O)CN3CC[C@@H](CCc4ccc5c(n4)NCCC5)C3)cc(N3CCOCC3)c2)n1 (mixture of isomers) [Example 4] :: 31.6
5) O=C(O)C[C@H](CN1CC[C@@H](CCc2ccc3c(n2)NCCC3)C1)c1cc(-c2ccn[nH]2)cc(N2CCOCC2)c1 [Example 6] :: 7.94

Every entry's value here was drawn from patent US10004724B2.
